These measurements were taken from paper PMC11684029.

Biological target: 2C9 (Homo sapiens, UniProt P11712)
Construct: 0.1 mg/mL human liver microsomes (HLM) and Substrate Mix; from tissue; host or cells: human liver microsomes
Sequence (P11712 whole entry): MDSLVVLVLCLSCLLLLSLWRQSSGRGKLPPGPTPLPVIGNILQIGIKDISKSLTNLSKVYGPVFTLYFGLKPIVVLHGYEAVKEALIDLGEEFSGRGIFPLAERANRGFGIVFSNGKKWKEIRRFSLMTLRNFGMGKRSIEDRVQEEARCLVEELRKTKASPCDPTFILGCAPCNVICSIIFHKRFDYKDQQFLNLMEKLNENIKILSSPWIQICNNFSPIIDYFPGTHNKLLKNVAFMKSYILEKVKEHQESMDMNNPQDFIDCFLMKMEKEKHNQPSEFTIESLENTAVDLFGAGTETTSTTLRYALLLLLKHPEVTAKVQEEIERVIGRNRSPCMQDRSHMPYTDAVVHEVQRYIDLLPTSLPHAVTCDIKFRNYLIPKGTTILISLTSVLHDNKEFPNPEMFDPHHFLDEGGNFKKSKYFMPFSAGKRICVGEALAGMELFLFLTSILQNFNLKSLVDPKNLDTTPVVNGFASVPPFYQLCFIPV
Experiment: inhibition of cytochrome P450 enzymes
Type: in vitro ADME
Conditions: human liver microsomes; read-out: CYP450 2C9 inhibition
PARAMETER_MEASURED: IC50 (µM)
API: value field is a number in µM; no unit string.

Exercise: Given the molecule Cn1nc(-c2ccnn2C)cc1CNC(=O)c1cc(-c2ccco2)ccc1Cl [Compound 19d] , what is its reported IC50?
Solution: 6.4

* * *

Target: human mGlu1 (Homo sapiens, UniProt Q13255)
Construct: expressed in transfected cells; pcDNA5/TO)
Sequence (Q13255 19-1194): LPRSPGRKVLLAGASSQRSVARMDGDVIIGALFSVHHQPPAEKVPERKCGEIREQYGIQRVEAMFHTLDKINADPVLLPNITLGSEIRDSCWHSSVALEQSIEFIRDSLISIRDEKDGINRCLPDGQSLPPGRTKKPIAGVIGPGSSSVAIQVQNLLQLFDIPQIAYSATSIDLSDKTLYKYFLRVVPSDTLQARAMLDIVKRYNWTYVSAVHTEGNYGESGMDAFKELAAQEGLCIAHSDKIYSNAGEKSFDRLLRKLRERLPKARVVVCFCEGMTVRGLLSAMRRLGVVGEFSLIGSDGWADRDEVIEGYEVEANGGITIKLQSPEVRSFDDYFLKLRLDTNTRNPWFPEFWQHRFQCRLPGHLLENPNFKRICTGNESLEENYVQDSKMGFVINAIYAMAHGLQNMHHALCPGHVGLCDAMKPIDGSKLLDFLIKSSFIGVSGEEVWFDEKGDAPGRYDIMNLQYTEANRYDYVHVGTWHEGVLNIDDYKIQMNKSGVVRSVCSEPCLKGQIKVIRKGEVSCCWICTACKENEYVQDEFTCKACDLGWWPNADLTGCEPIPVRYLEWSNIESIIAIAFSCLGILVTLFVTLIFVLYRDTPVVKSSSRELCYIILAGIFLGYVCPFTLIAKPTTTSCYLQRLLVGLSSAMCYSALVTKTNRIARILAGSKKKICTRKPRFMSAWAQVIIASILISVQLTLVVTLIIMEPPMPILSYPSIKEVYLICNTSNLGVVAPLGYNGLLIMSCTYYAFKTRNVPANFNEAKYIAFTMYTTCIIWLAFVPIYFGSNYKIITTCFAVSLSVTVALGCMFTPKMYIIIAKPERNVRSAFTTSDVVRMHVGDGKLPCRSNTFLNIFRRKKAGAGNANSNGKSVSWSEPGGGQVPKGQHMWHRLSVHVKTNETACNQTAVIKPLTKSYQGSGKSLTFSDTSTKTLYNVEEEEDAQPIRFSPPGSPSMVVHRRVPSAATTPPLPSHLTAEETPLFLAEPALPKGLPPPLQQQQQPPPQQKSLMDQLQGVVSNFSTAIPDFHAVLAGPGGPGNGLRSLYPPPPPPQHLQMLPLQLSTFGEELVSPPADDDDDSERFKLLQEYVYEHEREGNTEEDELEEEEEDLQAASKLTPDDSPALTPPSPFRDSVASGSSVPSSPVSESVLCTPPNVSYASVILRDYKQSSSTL
Assay: mGlu1 calcium mobilization (triple-add) PAM assay
Type: cell-based
Conditions: PAM, calcium flux, EC20 glutamate
Mark MET for reported human mGlu1 Glumax of 60% or greater; mark NOT MET for anything smaller.

Exercise: Kindly determine if human mGlu1 Glumax recorded for O=C(NCc1cnn2ccccc12)c1cc(-c2ccccc2)ccc1Cl is above or exactly 60%.
Solution: NOT MET

Exercise: Let us now turn to COc1ccc(Cl)cc1C(=O)NCc1cnn2ccccc12
Solution: MET

Exercise: # iterate: Cn1nc(-c2cccs2)cc1CNC(=O)c1cc(-c2ccco2)ccc1Cl [Compound 19a]
Solution: MET

Exercise: Item: O=C(NCc1nc(C2CC2)no1)c1cc(-c2ccco2)ccc1Cl [Compound 15d]
Solution: MET

Exercise: Next record, please: Cc1ccc(Cl)cc1C(=O)NCc1cnn2ccccc12
Solution: NOT MET

Exercise: Next: O=C(NCc1cnn2ccccc12)c1cc(Cl)ccc1Cl
Solution: NOT MET

Exercise: Next entry: O=C(NCc1cnn2ccccc12)c1cc(-c2cccs2)ccc1Cl
Solution: NOT MET

Exercise: What do you get for O=C(NCc1cnn2ccccc12)c1cc(-c2ccsc2)ccc1Cl ?
Solution: NOT MET

Exercise: Same question for COc1ccc(OC)c(C(=O)NCc2cnn3ccccc23)c1 please.
Solution: NOT MET
